# System: NCI/ADR-RES ovarian
# procedure summary: NCI-60 one-dose screen, 48 h (100 = growth as untreated, 0 = no growth, -100 = all killed)
# condition context: 10 µM unless noted
Compounds without any hit were thinned out: in the full panel of roughly 83,000, 20% have a hit.
So basically: growth at 60% or higher? That is yes (1). Lower than 60%? That is no (0).

Given the entry N=S(=O)(NC(=O)c1ccc(Cl)cc1Cl)c1ccc(Br)s1 (stereo not given) , answer whether its growth meets or surpasses 60%.
yes (1)

Given the entry O=C(Nc1ccc(F)cc1)Nc1ccc(CCO)cc1 , answer whether its growth meets or surpasses 60%.
yes (1)

Given the entry CC(=O)N1CC(Nc2ccc(OC(F)(F)F)cc2)=CC1=O , answer whether its growth meets or surpasses 60%.
no (0)

Given the entry COc1ccc(OCC(=O)Nc2ccc(-c3nc4ccccc4s3)cc2C)cc1 , answer whether its growth meets or surpasses 60%.
yes (1)

Given the entry Nc1c(C(=O)Nc2ccccc2)sc2nc3c(cc12)CN(CCc1ccccc1)CC3 , answer whether its growth meets or surpasses 60%.
yes (1)

Given the entry COc1ccc(S(=O)(=O)NCCCNc2cc(-c3c(-c4cccc(OC)c4)nc4sccn34)ccn2)cc1 , answer whether its growth meets or surpasses 60%.
no (0)

Given the entry O=S(=O)(Nc1ccc(Cl)cc1Cl)c1ccc(-c2cnc(C3CC3)o2)cc1 , answer whether its growth meets or surpasses 60%.
no (0)

Given the entry O=C(O)c1cccnc1Br , answer whether its growth meets or surpasses 60%.
yes (1)

Given the entry O=C(Nc1cccc2c1C(=O)c1cccc(Nc3cccc4c3C(=O)c3cccc(NC(=O)c5ccccc5)c3C4=O)c1C2=O)c1ccccc1 , answer whether its growth meets or surpasses 60%.
yes (1)

Given the entry COc1cnc2c(c1)C(=O)c1c-2n(CCCN2CCCC2)c(=O)c2cc([N+](=O)[O-])ccc12 , answer whether its growth meets or surpasses 60%.
no (0)

Given the entry OCCNCCNc1c2ccccc2nc2ccccc12 , answer whether its growth meets or surpasses 60%.
yes (1)

Given the entry C[C@@H]1CC[C@@H]2[C@@H]1[C@H](OC(=O)/C=C/c1ccccc1)[C@]1(C3CCCCC3)C[C@@H](OC(=O)CO)[C@@]2(C)O1 , answer whether its growth meets or surpasses 60%.
no (0)

Given the entry Cc1cc(Nc2nc(N3CCNCC3)nc3ccccc23)n[nH]1 , answer whether its growth meets or surpasses 60%.
yes (1)

Given the entry O=C(/C=C/c1ccc(Cl)cc1)c1ccc(O)c(CN2CCN(c3cc4c(cc3F)c(=O)c(C(=O)O)cn4C3CC3)CC2)c1 , answer whether its growth meets or surpasses 60%.
yes (1)

Given the entry CN1CCN(Cc2ccc(NC(=O)c3[nH]ncc3Nc3ccnc4ccsc34)cc2)CC1 , answer whether its growth meets or surpasses 60%.
yes (1)

Given the entry CCN(CC)CC#CCOC(=O)[C@]1(C)CCC[C@@]2(C)[C@H]1CC(C=O)=C1C=C(C(C)C)CC[C@@H]12 , answer whether its growth meets or surpasses 60%.
yes (1)

Given the entry COC1=CC(=O)C(OC)=C(OC)C1=O , answer whether its growth meets or surpasses 60%.
yes (1)

Given the entry Nc1cc(-c2nc3sccn3c2-c2ccnc(NCCCNS(=O)(=O)c3ccc(F)cc3)n2)ccc1F , answer whether its growth meets or surpasses 60%.
no (0)

Given the entry NC1=CSC2=N/C(=C\c3ccc(Cl)cc3)C(=O)N12 , answer whether its growth meets or surpasses 60%.
yes (1)

Given the entry COc1cc2c(cc1O)CCc1cc(O)cc(OC)c1-2 , answer whether its growth meets or surpasses 60%.
yes (1)

Given the entry CC1=C(NCCN2CCCC2)C(=O)c2c(OCc3ccc(F)c(Cl)c3)cccc2C1=O , answer whether its growth meets or surpasses 60%.
yes (1)

Given the entry COc1cc2c(=O)n(CC3CCCCC3)c3c4cc[nH]c4ncc3c2cc1OC , answer whether its growth meets or surpasses 60%.
no (0)

Given the entry O=[N+]([O-])c1c(F)cccc1Nc1cccc(F)c1 , answer whether its growth meets or surpasses 60%.
yes (1)

Given the entry COc1ccc(/C=N\NC(=O)CN2CCN(c3cc4c(cc3F)c(=O)c(C(=O)N/N=C/c3ccc(OC)cc3)cn4C3CC3)CC2)cc1 , answer whether its growth meets or surpasses 60%.
yes (1)

Given the entry Cn1c2ccccc2c2c3[nH]c(=O)[nH]c(=O)c3c3c4ccccc4n(C)c3c21 , answer whether its growth meets or surpasses 60%.
no (0)

Given the entry COCCCN=C(N)c1ccc(NC(=O)c2ccc(C(=O)Nc3ccc(C(N)=NCCCOC)cc3)cc2)cc1 , answer whether its growth meets or surpasses 60%.
yes (1)

Given the entry O=C1/C(=C/c2ccc(Cl)c(Cl)c2)CN(C(=O)CCN2CCC(=NO)CC2)C/C1=C\c1ccc(Cl)c(Cl)c1 , answer whether its growth meets or surpasses 60%.
no (0)

Given the entry O=C(/C=C/c1cccc(Br)c1)c1ccccc1 , answer whether its growth meets or surpasses 60%.
yes (1)

Given the entry CN(C)c1ccc(C2Nc3ccccc3-n3cccc32)cc1 (stereo not given) , answer whether its growth meets or surpasses 60%.
yes (1)

Given the entry O=C1Nc2c(ccc(Cl)c2Cl)/C1=C/c1cc(Br)c(O)c(Br)c1 , answer whether its growth meets or surpasses 60%.
no (0)

Given the entry CCOC(=O)c1ccc2c(c1)nc(/C=C/c1ccc(Cl)cc1)n2-c1cc(C(C)(C)C)[nH]n1 , answer whether its growth meets or surpasses 60%.
yes (1)

Given the entry CCN(CC)CC(C)(C)C(=O)/C=C/c1ccccc1 , answer whether its growth meets or surpasses 60%.
no (0)

Given the entry Cn1cc(-c2ccc(-c3cn(C)c4ncccc34)[nH]2)c2cccnc21 , answer whether its growth meets or surpasses 60%.
yes (1)

Given the entry COc1cccc(/C=C2/C(=O)N(Cc3ccco3)SC2=S)c1OC , answer whether its growth meets or surpasses 60%.
yes (1)

Given the entry ClC1=C2NC=NC2n2c(nnc2-c2ccc(Cl)cc2)N1 (stereo not given) , answer whether its growth meets or surpasses 60%.
yes (1)

Given the entry Cc1cccc(NC(=O)c2sc3nc4c(cc3c2N)C(=O)CCC4)c1 , answer whether its growth meets or surpasses 60%.
no (0)

Given the entry COc1ccc2nc3cc(Cl)ccc3c(N3CCN(c4nccc(NCc5ccccc5)n4)CC3)c2c1 , answer whether its growth meets or surpasses 60%.
yes (1)

---

# Tested on: NCI-H522 lung
# procedure summary: NCI-60 one-dose screen, 48 h
# condition context: 10 µM unless noted
Compounds without any hit were thinned out: in the full panel of roughly 83,000, 20% have a hit. Calls of active or inactive are those of the source. How the source made its calls: active means growth percent below 10; inactive means the rest.
Field 'call' accepts active, inactive

In this assay, the call recorded for COc1ccc(-c2cc(/C=C3\C(=O)Nc4ccc(Cl)cc43)[nH]n2)cc1 was what?
active

In this assay, the call recorded for Oc1ccc2c(=S)cc(-c3ccc(Br)cc3)oc2c1O was what?
active

In this assay, the call recorded for CSc1ccc(N=C=C(c2ccccc2)c2ccccc2)cc1 was what?
inactive

In this assay, the call recorded for CCN1CCN(Cc2ccc(NC(=O)Nc3nc4ccc(Oc5ccnc(C(=O)NC)c5)cc4s3)cc2C(F)(F)F)CC1 was what?
active

In this assay, the call recorded for CC/C=C\C[C@H](O)C/C=C1/C(=O)C=C[C@@H]1C/C=C\CCCC(N)=O was what?
active

In this assay, the call recorded for Cc1cc2c(cc1C)NC1=C(N2)OC(c2c3ccccc3cc3ccccc23)C1=O (stereo not given) was what?
active

In this assay, the call recorded for COc1cc(/C=N/N(C)C)ccc1O was what?
inactive

In this assay, the call recorded for CC#CC#Cc1cccc(=O)o1 was what?
inactive

In this assay, the call recorded for COc1cc(C(=O)/C=C/c2c(C)n([O-])c3ccc(C)cc3[n+]2=O)cc(OC)c1OC was what?
active

In this assay, the call recorded for CCOC(=O)c1c2c(n3ccc(NC(=O)CCN(CC)CC)cc13)C(=O)c1ncccc1C2=O was what?
active

---

# Tested on: CCRF-CEM leukemia
# procedure summary: NCI-60 one-dose screen, 48 h (100 = growth as untreated, 0 = no growth, -100 = all killed)
# condition context: 10 µM unless noted
The panel holds about 83,000 compounds, 20% with a hit somewhere; the sample as a whole holds those more often.
Please respond with reported growth for every item in the list.
Note: unit % is implicit; provide only the numeric part.

Report growth for CN(C)c1ccc(C2Nc3ccccc3-n3cccc32)cc1 (stereo unspecified) please.
109

Report growth for Cc1cc(Nc2nc(N3CCOCC3)nc3ccccc23)n[nH]1 please.
65.6

Report growth for CCOC(=O)C(C#N)C1CCCCC1 (stereo unspecified) please.
87.2

Report growth for O=C1Nc2ccccc2/C1=C/C(=N/c1nnc(-c2ccccc2)s1)c1ccccc1 please.
-45

Report growth for C=C1CCC2C3(C)COC(c4cccc(Cl)c4)OC3CCC2(C)C1/C=C/C1=CCOC1=O (stereo unspecified) please.
48.4

Report growth for CSc1ccc(N=C=C(c2ccccc2)c2ccccc2)cc1 please.
1.03

Report growth for c1c2c(cc3c1OCO3)Cc1cc3c(cc1Cc1cc4c(cc1C2)OCO4)OCO3 please.
112

Report growth for CN1CCOCCOCCOc2ccccc2NC(=O)c2nc(cnc2N)-c2ccc(cc2)S1(=O)=O please.
2.07

Report growth for CC(=O)N1CC(Nc2ccc(OC(F)(F)F)cc2)=CC1=O please.
11

Report growth for COc1cccc(-n2cc(-c3nc(Nc4cc(C)[nH]n4)c4ccccc4n3)nn2)c1 please.
32.6

Report growth for COc1ccc(C(=O)/C=C/c2c(Cl)c3c(c(OC)c2Cl)OCC(=O)N3)cc1 please.
5.04

Origin of the recorded values: PubChem BioAssay (NCI)
